# Tgt: T1, human TREM2 (human, UniProt Q9NZC2 19-174, limits assumed)
# T1 construct: also called triggering receptor expressed on myeloid cells 2
# T1 sequence: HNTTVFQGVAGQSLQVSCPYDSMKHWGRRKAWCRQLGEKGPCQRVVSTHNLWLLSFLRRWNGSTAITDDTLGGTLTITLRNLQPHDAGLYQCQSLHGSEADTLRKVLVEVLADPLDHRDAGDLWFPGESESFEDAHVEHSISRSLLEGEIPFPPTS
# Test: 2nd screen 2 nM
# note: exactly 3 fold is not below, so it is label 0; use label 1 for Binding Signal (fold over 6E7 Parental antibody) strictly under it

Solved cases below.
- Binder: "V25 (antibody, V domains shown) VH: EVQLVQSGAEVKKPGESLKISCKGSGYSFGSYWIAWVRQMPGKGLEWMGLIYPGDSDTRYSPSFQGQVTISADKSISTAYLQWSSLKASDTAMYFCARSRTFYYDSSDYFDYWGQGTLVTVSS VL: DIQMTQSPSSVSASVGDRVTITCRASQGISSWLAWYQQKPGKAPKLLIYAASSLANGVPSRFSGSGSGTDFTLTISSLQPEDFATYFCQQADSMPRTFGQGTKLEIK"
  Category: "label 0"
- Binder: "V40 (antibody, V domains shown) VH: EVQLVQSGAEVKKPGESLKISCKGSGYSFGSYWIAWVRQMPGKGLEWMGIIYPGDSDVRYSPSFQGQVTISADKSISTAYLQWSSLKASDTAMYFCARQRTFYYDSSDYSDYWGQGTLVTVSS VL: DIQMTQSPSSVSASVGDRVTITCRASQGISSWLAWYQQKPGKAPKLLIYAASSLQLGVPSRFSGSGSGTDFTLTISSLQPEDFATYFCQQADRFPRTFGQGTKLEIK"
  Category: "label 0"
- Binder: "V64 (antibody, V domains shown) VH: EVQLVQSGAEVKKPGESLKISCKGSGYSFQSYWIAWVRQMPGKGLEWMGIIYPGDSDTRYSPSFQGQVTISADKSISTAYLQWSSLKASDTAMYFCARGRTFYYDSSDYFDYWGQGTLVTVSS VL: DIQMTQSPSSVSASVGDRVTITCRASQGISSWLAWYQQKPGKAPKLLIYAASSLANGVPSRFSGSGSGTDFTLTISSLQPEDFATYFCQQADSYPRTFGQGTKLEIK"
  Category: "label 0"
- Binder: "V28 (antibody, V domains shown) VH: EVQLVQSGAEVKKPGESLKISCKGSGYSFQSYWIAWVRQMPGKGLEWMGTIYPGDSDTRYSPSFQGQVTISADKSISTAYLQWSSLKASDTAMYFCARQRTFFYDSSDYFDYWGQGTLVTVSS VL: DIQMTQSPSSVSASVGDRVTITCRASQGISSWLAWYQQKPGKAPKLLIYAASSLQSGVPSRFSGSGSGTDFTLTISSLQPEDFATYFCQQADSLPRTFGQGTKLEIK"
  Category: "label 1"

### Prompt Is the reported Binding Signal (fold over 6E7 Parental antibody) for V16 (antibody, V domains shown) VH: EVQLVQSGAEVKKPGESLKISCKGSGYSMTSYWIAWVRQMPGKGLEWMGIIYPGDGDTRYSPSFQGQVTISADKSISTAYLQWSSLKASDTAMYFCARSRTFYYDSSDYFDYWGQGTLVTVSS VL: DIQMTQSPSSVSASVGDRVTITCRASQGISSWLAWYQQKPGKAPKLLIYAASNLQNGVPSRFSGSGSGTDFTLTISSLQPEDFATYFCQQADSFPRTFGQGTKLEIK strictly below 3 fold?
### Response label 0

Values compiled from patent US20250282866A1.
